Origin of measurements: PubChem BioAssay AID1645848

Parameter solubility kinetic: see the listing below.
# condition_parameters: buffer; pH 7.4; 6.0 h; 150.0 µM

{"columns": ["compound", "limit_sign", "solubility kinetic / µg/mL"],
 "data": [
  ["Cc1cnc(CNc2nc(-c3cccc(NS(C)(=O)=O)c3)nc3ccccc23)cn1", "=", 44],
  ["CCC(=O)NC(c1ccco1)c1cc(Cl)c2cccnc2c1O (stereo unspecified)", "<", 1],
  ["Cc1ccnc(NC(=S)N2CCN(c3ccc(Cl)c(Cl)c3)CC2)c1", "<", 1],
  ["CCN(C(=O)C(NS(=O)(=O)c1ccc(Br)s1)c1ccccc1)c1ccc(C)c(C)c1 (stereo unspecified)", "<", 1],
  ["COc1cc(-c2nc(-c3c(C)noc3C)cc3c2cc(C)n3CCN(C)C)ccn1", ">", 90],
  ["CC(C)Oc1cccc(-c2cnc(N3CCC(C(N)=O)CC3)s2)c1", "=", 1.43],
  ["CC/C=C\\C/C=C\\C/C=C\\C/C=C\\C/C=C\\C/C=C\\CCC(=O)NCCO", ">", 55],
  ["COc1ccc(CN2CCNc3cc(Nc4ccccc4)ncc3C2)cc1O", ">", 83],
  ["CC(C)c1cc(C(=O)N2CC[C@@H](NC(=O)C3CC3)C2)n[nH]1", ">", 43],
  ["COc1ncccc1-c1cc2[nH]ccc2c(C(=O)NCc2c(C)cc(C)[nH]c2=O)n1", "=", 5.75],
  ["CC(=O)c1ccc(N2CCN(c3ccc(NC(=O)c4ccc(F)cc4)cc3C(=O)O)CC2)cc1", "<", 1],
  ["Cc1cccc(-n2cnc3cc(C(=O)N4CCCC(C)(C)C4)ccc32)c1", "=", 37.7],
  ["CC(=O)Nc1ncc(S(=O)(=O)N2CCOCC2)s1", "=", 26.6],
  ["COc1ccc(-n2nc(C3CCCN(C(=O)c4ccc(C)cc4)C3)[nH]c2=O)cc1 (stereo unspecified)", "=", 39.4],
  ["COc1ccc(-c2nc(CS(=O)CC(=O)N3CCC4(CC3)OCCO4)c(C)o2)cc1 (stereo unspecified)", ">", 64],
  ["C[C@@]1(C(=O)Nc2ccc(F)nc2)CCCN1c1nc(Nc2cc(C3CC3)[nH]n2)c2cccn2n1", "=", 31.1]
]}

* * *

# condition_parameters: buffer; pH 7.4; 6.0 h; 150.0 µM
property_measured: solubility kinetic (µg/mL)

{"columns": ["compound", "property_measured", "unit_abbreviation", "limit_sign", "value_reported"],
 "data": [
  ["COC(=O)[C@H](NC(=O)c1cc(-c2ccccc2)nc2ccccc12)c1ccccc1", "solubility kinetic", "µg/mL", "<", 1],
  ["CC(C)(O)Cn1c(NC(=O)c2ccc(-c3cn[nH]c3)s2)nc2cc(CN3CCOCC3)ccc21", "solubility kinetic", "µg/mL", "=", 47],
  ["Nc1ccc(CNc2ccc([S+](=O)([O-])Nc3nccs3)cc2)c(O)c1", "solubility kinetic", "µg/mL", "=", 45.7],
  ["O=C(Cc1ccc(Cl)c(Cl)c1)Nc1ccc(S(=O)(=O)Nc2cncnc2)cc1", "solubility kinetic", "µg/mL", ">", 64],
  ["Cc1nn2c(c1-c1ccccc1-c1ccccc1)N(Cc1ccc(C(=O)O)s1)CCC2", "solubility kinetic", "µg/mL", ">", 63],
  ["Cc1ccc(/C=C/c2nc3ccccc3n2S(=O)(=O)c2cccc(Cl)c2)cc1", "solubility kinetic", "µg/mL", "<", 1],
  ["CC(C)c1ccc(OCc2nc3c(n2Cc2ccccc2)C(=O)N(CC2CCOCC2)CCN3)cc1", "solubility kinetic", "µg/mL", "<", 1],
  ["O=C(Nc1nc(-c2ccccc2)cs1)c1ccncc1NS(=O)(=O)c1ccccc1Cl", "solubility kinetic", "µg/mL", "=", 20],
  ["Fc1ccc(-c2csc3ncnc(Sc4nnnn4-c4ccccc4)c23)cc1", "solubility kinetic", "µg/mL", "=", 0.705],
  ["O=S(=O)(Nc1nccs1)c1ccc(NCc2cc(Cl)ccc2O)cc1", "solubility kinetic", "µg/mL", "=", 37.2],
  ["CC1CCN(S(=O)(=O)c2ccc3c(ccc(=O)n3CC(=O)NCc3ccc(Cl)cc3)c2)CC1", "solubility kinetic", "µg/mL", "<", 1],
  ["O=C1c2ccccc2C2=Nc3ccccc3SC(c3ccc(Cl)cc3)C12 (configuration not stated)", "solubility kinetic", "µg/mL", "<", 1],
  ["COc1cccc(CNCCSc2nnnn2C)c1OCc1ccc(Cl)cc1Cl", "solubility kinetic", "µg/mL", "=", 16.6],
  ["Oc1ccc(CNc2ccccc2Br)c2cccnc12", "solubility kinetic", "µg/mL", "=", 8.3],
  ["O=C(O)c1ccc(N2C(=O)/C(=C/c3ccc(-c4ccc([N+](=O)[O-])cc4)o3)C=C2c2ccccc2)cc1", "solubility kinetic", "µg/mL", "=", 31.4],
  ["O=C1Nc2ccccc2/C1=C/c1cc(Cl)c(O)c(Cl)c1", "solubility kinetic", "µg/mL", ">", 45],
  ["O=C(NCCc1nc2ccccc2n1CCO)C1CCCCC1", "solubility kinetic", "µg/mL", ">", 47]
]}

* * *

Readings of solubility kinetic for the listed compounds
# condition_parameters: buffer; pH 7.4; 6.0 h; 150.0 µM
property_measured: solubility kinetic

{"columns": ["compound", "value_reported"],
 "data": [
  ["Cc1cc(-c2nnc3n2CCCCC3)c(C)n1-c1ccc(C#N)cc1", "> 49 µg/mL"],
  ["COc1ccccc1CN1CCNc2cc(Nc3ccccc3)ncc2C1", "> 80 µg/mL"],
  ["Cc1cc(NS(=O)(=O)c2ccc(NC(=O)Cc3ccc(F)c(Cl)c3)cc2)no1", "> 63 µg/mL"],
  ["CC(/C=C/C(=O)NO)=C\\[C@@H](C)C(=O)c1ccc(N(C)C)cc1", "> 45 µg/mL"],
  ["O=C(COC(=O)CCC(=O)c1cccs1)NCc1ccco1", "> 47 µg/mL"],
  ["O=C(NCCc1ccc(OCC(F)(F)F)c(OCC(F)(F)F)c1)c1cc2sccc2n1Cc1ccccc1", "< 1 µg/mL"],
  ["O=C(Nc1ccc(-c2ccccc2)cc1)[C@H](Cc1ccc(O[S+](=O)([O-])c2cccc3cnccc23)cc1)N[S+](=O)([O-])c1cccc2cnccc12", "< 1 µg/mL"],
  ["O=C1CCCC2=C1C(c1[nH]ncc1Br)N=C(Nc1nc3ccccc3o1)N2 (stereo not given)", "< 1 µg/mL"],
  ["CN(Cc1ccc(/C=C/C(=O)NO)cc1)CC12CC3CC(CC(C3)C1)C2", "> 35 µg/mL"],
  ["COc1cc(-c2cn(C)c(=O)c3cnccc23)c(OC)cc1CN(C)C", "> 52 µg/mL"]
]}

* * *

# condition_parameters: buffer; pH 7.4; 6.0 h; 150.0 µM
property_measured: solubility kinetic

{"columns": ["compound", "value_reported"],
 "data": [
  ["Cc1ccc(S(=O)(=O)Nc2ccc(Cl)c(C(=O)Nc3nc(-c4ccccc4)cs3)c2)cc1", "< 1 µg/mL"],
  ["Cc1ccc(-c2cc(C(=O)O)c3ccccc3n2)cc1", "> 39 µg/mL"],
  ["Cc1nc(NC(=O)C2CC(=O)N(c3n[nH]c4cc(Br)ccc34)C2)sc1C (centres undefined)", "< 1 µg/mL"],
  ["O=S(=O)(Nc1nccs1)c1ccc(NCc2cccc(F)c2O)cc1", "> 56 µg/mL"]
]}

* * *

# condition_parameters: buffer; pH 7.4; 6.0 h; 150.0 µM

{"columns": ["molecule", "unit_abbreviation", "limit_sign", "solubility kinetic"],
 "data": [
  ["O=C1Nc2ccccc2/C1=C/c1ccc[nH]1", "µg/mL", "=", 1.91],
  ["CCCCC1CCC(C(=O)Nc2ccc(S(=O)(=O)Nc3nccs3)cc2)CC1 (configuration not stated)", "µg/mL", "<", 1],
  ["CS(=O)(=O)CCNCc1ccc(-c2ccc3ncnc(Nc4ccc(OCc5cccc(F)c5)c(Cl)c4)c3c2)o1", "µg/mL", "<", 1],
  ["Cc1noc(C)c1-c1ccc(Nc2nc(-c3ccncc3)nc3ccccc23)cc1F", "µg/mL", "<", 1],
  ["CCOC(=O)N1CCN(Cc2nc3cc(NC(=O)CC(C)C)ccc3n2C(C)C)CC1", "µg/mL", ">", 63],
  ["O=C1Nc2ccccc2/C1=C\\c1ccc(O)c(F)c1", "µg/mL", "=", 9.29],
  ["COc1ccc2c(c1)CN(C(=O)CCN1CCC(Cc3ccccc3)CC1)CCS2", "µg/mL", ">", 63],
  ["Cc1ccc(CC(=O)Nc2nc(-c3ccc4c(c3)CCN4C(=O)c3ccccc3C)c(C)s2)cc1C", "µg/mL", "<", 1],
  ["Fc1cc(Nc2nc(-c3ccncc3)nc3ccccc23)ccc1-c1cccc(C(F)(F)F)c1", "µg/mL", "<", 1],
  ["Cc1cc(C)c2nc(-c3ccccn3)cc(C(=O)Nc3ccc(S(=O)(=O)Nc4onc(C)c4C)cc3)c2c1", "µg/mL", "=", 12],
  ["O=[S+]([O-])(Nc1nccs1)c1ccc(NCc2cccc(Cl)c2)cc1", "µg/mL", "=", 2.53],
  ["Cc1ccc(S(=O)(=O)Nc2nc3ccc(C)cc3nc2Nc2ccc3c(c2)OCO3)cc1", "µg/mL", ">", 66],
  ["Cc1cccc(-c2[nH]c(C(C)(C)C)nc2-c2ccc3nccnc3c2)n1", "µg/mL", ">", 51],
  ["COc1ccccc1Nc1ccnc(N2CCN(C(=O)c3ccc(F)cc3)CC2)n1", "µg/mL", "=", 10.8],
  ["O=C(CCS(=O)(=O)c1nc(-c2cccs2)cc(C(F)(F)F)n1)Nc1ccc(OC(F)(F)F)cc1", "µg/mL", "=", 11.5],
  ["CCN1CCN(CC(=O)Nc2ccc(-c3cccc4c(=O)cc(N5CCOCC5)oc34)c3sc4ccccc4c23)CC1", "µg/mL", "=", 63.6],
  ["CCC(CC)c1cc([C@H]2CN3CC[C@H]2C[C@@H]3CNC(=O)Cc2cccs2)nc(-c2ccncc2)n1", "µg/mL", ">", 72],
  ["O=C(Nc1cc(Cc2ccccc2)ccn1)c1ccc(-c2cccc([N+](=O)[O-])c2)o1", "µg/mL", "<", 1],
  ["COc1cc(NC(=O)c2nc3ccccc3n(C)c2=O)cc(OC)c1OC", "µg/mL", "=", 7.16],
  ["NC(=O)C1CCN(c2nnc(-c3ccc(Br)cc3)s2)CC1", "µg/mL", "=", 8.24],
  ["Fc1ccccc1Nc1nc(-c2ccncc2)nc2ccccc12", "µg/mL", "<", 1],
  ["COc1ccc(-n2nc(C3CCCN(C(=O)Cc4ccccn4)C3)[nH]c2=O)cc1 (configuration not stated)", "µg/mL", ">", 58],
  ["Fc1ccc(CNc2cc3c(cn2)CN(Cc2ccncc2)CCN3)cc1", "µg/mL", "=", 36.6],
  ["COc1ccc2cc1Oc1ccc(cc1)C[C@@H]1c3c(cc(OC)c4c3Oc3cc5c(cc3O4)CCN[C@H]5C2)CCN1C", "µg/mL", "<", 1],
  ["Cc1ccc(CN2C(=O)C(O)(CC(=O)c3ccc(C)cc3)c3ccccc32)cc1 (configuration not stated)", "µg/mL", "<", 1],
  ["Cc1cnc(-c2ccccc2C(C)(C)C)nc1NCc1ccc(-n2ccnn2)cc1", "µg/mL", "=", 13.2],
  ["CC1=C(C(=O)Nc2nncs2)C(c2ccccc2Br)N=C(Nc2nc3ccccc3o2)N1 (configuration not stated)", "µg/mL", "<", 1],
  ["O=C1Nc2cc(Cl)ccc2Nc2cscc21", "µg/mL", "=", 9.92],
  ["CC(Nc1ncnc2c1cnn2-c1cccc(Cl)c1)c1ccccc1 (configuration not stated)", "µg/mL", "<", 1],
  ["COc1ncccc1-c1cc2c(ccn2C(C)C)c(C(=O)NCc2c(C)cc(C)[nH]c2=O)n1", "µg/mL", "=", 10.1],
  ["COc1cc(Nc2nc(-c3ccncc3)nc3ccccc23)ccc1NS(C)(=O)=O", "µg/mL", "<", 1],
  ["O=C(NCCCNc1nc(Nc2cccc(NC(=O)N3CCCC3)c2)ncc1I)c1cccs1", "µg/mL", "=", 14.2]
]}
